# Assay Info: probe aDKK1 binding to arrayed compounds – biochemical, biotinylated probe, 635/667 nm fluorescence, primary screen (AID 1099);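 note: score merges 667nm spot fluorescence with signal to noise across triplicate slides; reference of the scale not given here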
# Test Settings: small-molecule microarray, higher = more signal
Metric: composite z-score
Give bare numbers.

# annotated cases, reported composite z-score shown
Molecule	Metric	Quantitative Readout
CC(C)C(CO)N1C(=O)[C@@H]2[C@H]3C(=O)OCC=C[C@H]3OC23C=CCN(CCN2CCOCC2)C(=O)[C@@H]13 (stereo partly specified)	composite z-score	-0.385
CCCCCCC#C[Si](O[C@H](c1ccccc1)c1cn(Cc2cccc(Cl)c2)nn1)(C(C)C)C(C)C	composite z-score	-0.166

Please give composite z-score, item by item, for the list that follows.
1. COc1ccc([Si](C)(C)[C@@H]2[C@@H](CC(=O)N(CCO)Cc3ccccc3)O[C@]3(C(=O)N(C)c4c(Br)cc(C)cc43)[C@H]2C)cc1
2. COC(=O)[C@@]1(Cc2ccc(OC)cc2)[C@H]2c3cc(C(=O)N4CCCC4)n(Cc4ccc(C)o4)c3C[C@H]2CN1C(=O)c1ccccc1
3. COc1cc2c(cc1OC)CN(C(=O)[C@@H]1[C@H]3C(=O)O[C@H](c4ccccc4)[C@H](c4ccccc4)N3[C@H](c3ccc(OCCO)cc3)[C@@]13C(=O)Nc1ccc(C#CCCO)cc13)CC2

-0.298
0.839
-0.0226

Looking for the measured composite z-score of COC(=O)[C@@]1(Cc2ccccc2)[C@H]2c3cc(C(=O)N(C)C)n(Cc4ccc(O)c(OC)c4)c3C[C@H]2CN1C(=O)c1ccccc1 , can you help? 0.722

Where do these numbers come from? They come from PubChem BioAssay.
